# Target: Adenosine receptor A2b (Homo sapiens) (UniProt P29275)
# Sequence (P29275 whole entry): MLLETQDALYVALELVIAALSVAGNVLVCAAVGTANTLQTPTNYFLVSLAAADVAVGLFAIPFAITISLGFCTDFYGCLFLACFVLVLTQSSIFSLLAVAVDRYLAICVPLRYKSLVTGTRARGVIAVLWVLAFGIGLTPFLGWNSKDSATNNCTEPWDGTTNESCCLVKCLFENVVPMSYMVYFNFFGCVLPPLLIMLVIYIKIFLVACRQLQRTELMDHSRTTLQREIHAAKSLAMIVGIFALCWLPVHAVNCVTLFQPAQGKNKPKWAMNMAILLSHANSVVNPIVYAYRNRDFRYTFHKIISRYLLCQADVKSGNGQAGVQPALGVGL
# Test: Displacement of [3H]DPCPX from recombinant human adenosine A2B receptor expressed in HEK293 cells at 0.1 uM
# Format: cell-based
List of inhibition values.
Your answer should be a plain number; it is taken to be in %.

Solved cases (8 shown):
>>> quantitative_result("CCCn1c(=O)c2[nH]c(-c3ccc(OCC(=O)Nc4ccccc4)cc3)c(Cl)c2n(CCC)c1=O")
57
>>> quantitative_result("Cn1c(=O)c2[nH]c(-c3ccc(OCC(=O)NC4CCCC4)cc3)cc2n(C)c1=O")
57
>>> quantitative_result("Cn1c(=O)c2[nH]c(-c3ccc(OCC(=O)NCc4ccc(Cl)cc4)cc3)cc2n(C)c1=O")
93
>>> quantitative_result("CCCn1c(=O)c2[nH]c(-c3ccc(OCC(=O)Nc4cccc(F)c4)cc3)c(Cl)c2n(CCC)c1=O")
46
>>> quantitative_result("CCCn1c(=O)c2[nH]c(-c3ccc(OCC(=O)Nc4ccc(C(C)=O)cc4)cc3)cc2n(CCC)c1=O")
62
>>> quantitative_result("CCn1c(=O)c2[nH]c(-c3ccc(OCC(=O)Nc4ccccc4)cc3)cc2n(CC)c1=O")
91
>>> quantitative_result("COc1cc(OCC(=O)Nc2ccccc2)ccc1-c1cc2c([nH]1)c(=O)n(C)c(=O)n2C")
55
>>> quantitative_result("CCCn1c(=O)c2[nH]c(-c3ccc(OCC(=O)Nc4ccc(CC(=O)OCC)cc4)cc3)cc2n(CCC)c1=O")
58

## Input Which measured inhibition value corresponds to `CCCn1c(=O)c2[nH]c(-c3ccc(OCC(=O)Nc4ccc(NC(C)=O)cc4)cc3)cc2n(CCC)c1=O` ?
## Output 70

## Input May I ask what inhibition has been recorded for `CCCn1c(=O)c2[nH]c(-c3ccc(OCC(=O)Nc4ccc(C(=O)NCCc5ccc(OC)cc5)cc4)cc3)cc2n(CCC)c1=O` ?
## Output 74

## Input Could you share which inhibition value was measured for `CCCn1c(=O)n(C)c(=O)c2[nH]c(-c3ccc(OCC(=O)Nc4ccccc4)cc3)cc21` ?
## Output 80

Provenance of the data: ChEMBL document CHEMBL1148617
